- assayTarget: T1, mouse IL-2Rγ (mouse) (UniProt P34902)
- T1 sequence (looked up): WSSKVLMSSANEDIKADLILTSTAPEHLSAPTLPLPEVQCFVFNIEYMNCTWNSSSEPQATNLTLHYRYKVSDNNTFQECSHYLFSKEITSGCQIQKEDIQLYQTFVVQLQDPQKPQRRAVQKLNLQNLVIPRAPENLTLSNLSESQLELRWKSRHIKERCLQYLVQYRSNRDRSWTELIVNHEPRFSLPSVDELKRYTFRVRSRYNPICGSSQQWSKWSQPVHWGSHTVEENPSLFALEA
- testSummary: PE binding ELISA, periplasmic extract on coated protein
OD (PE binding ELISA) values, listed per item
Field: numeric (OD450 nm). Do not append units.

FJ1427_P035MP04C12 (VHH) VHH: EVQLVESGGGWVQVGESLRLSCAPSGRTFVSGIMGWFRQAPGKEREFVARIILNNNSTRYIDSVKGRFTISRDSAKNTMYLQMDSLRPEDTAVYYCAARDRYGSGNSLSPSAYDYWGQGTQVTVSS; 0.048

In the following, a different binder is considered.
Need OD (PE binding ELISA), item FJ1427_P035MP04D08 (VHH) VHH: QVQLVESGGGLVQAGESLRLSCAASGPTASRVAVAWFRQVPGKEREFVAVVNRPGTMTKYADSVKGRFTISRDSAKNTVYLQMNSLKPEDTAVYYCAADSVPYGRPYYFQTSAGNYDYWGQGTQVTVSS
0.048
